fold difference in affinity vs original by entry:
targetOrTestSystem: binding partner (antigen) of C5A (XPA23)
assayMethodText: Biacore, K-off, fold vs original
Give the quantity in fold, number only.

Below: 2 binders and their reported fold difference in affinity vs original.
binder	fold difference in affinity vs original (fold)
C5A (XPA23) VH S52P (antibody, V domains shown) VH: EVQLLESGGGLVQPGGSLRLSCAASGFTFSKYFMFWVRQAPGKGLEWVSVIPPSGGMTRYADSVKGRFTISRDNSKNTLYLQMNSLRAEDTAVYYCARVGYGGNSDYWGQGTLVTVSS VL: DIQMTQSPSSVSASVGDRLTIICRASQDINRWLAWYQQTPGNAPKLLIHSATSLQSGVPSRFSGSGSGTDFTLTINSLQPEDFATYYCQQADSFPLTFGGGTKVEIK	0.05
C5A (XPA23) VH G55L (antibody, V domains shown) VH: EVQLLESGGGLVQPGGSLRLSCAASGFTFSKYFMFWVRQAPGKGLEWVSVISPSLGMTRYADSVKGRFTISRDNSKNTLYLQMNSLRAEDTAVYYCARVGYGGNSDYWGQGTLVTVSS VL: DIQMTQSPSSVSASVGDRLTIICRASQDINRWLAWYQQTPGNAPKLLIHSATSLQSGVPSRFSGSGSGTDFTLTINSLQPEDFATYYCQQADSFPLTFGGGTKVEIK	0.08

Now for the binder whose fold difference in affinity vs original we want.
For the binder C5A (XPA23) VH T58I (antibody, V domains shown) VH: EVQLLESGGGLVQPGGSLRLSCAASGFTFSKYFMFWVRQAPGKGLEWVSVISPSGGMIRYADSVKGRFTISRDNSKNTLYLQMNSLRAEDTAVYYCARVGYGGNSDYWGQGTLVTVSS VL: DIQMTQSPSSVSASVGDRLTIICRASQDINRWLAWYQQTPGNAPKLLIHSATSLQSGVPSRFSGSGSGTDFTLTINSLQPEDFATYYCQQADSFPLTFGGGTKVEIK , give its measured fold difference in affinity vs original value.
0.95
